# System: Lactobacillus rennini (DSM 20253)
# method_summary: Antimicrobial action of oxygen-containing heterocyclic compounds in soy sauce (Test Example 6)
# Assay type: cell-based
# run_parameters: Loigolactobacillus rennini, DSM20253, 168 h, salt 4% (w/v), alcohol 5% (v/v), test substance 1 ppm
endpoint_label: activity at 1 ppm

structure_notation | value
COc1c(CC=C(C)C)c(O)cc2c1C[C@H](c1ccc(O)cc1O)CO2 | 10 to 50%
COc1cc2oc(-c3ccc(O)cc3O)cc2c(OC)c1CC=C(C)C | 50 to 100%
CC(C)=CCc1cc(-c2coc3cc(O)c(CC=C(C)C)c(O)c3c2=O)cc(O)c1O | 10 to 50%
CC(C)=CCc1c(O)c(CC=C(C)C)c2occ(-c3ccc(O)cc3)c(=O)c2c1O | 50 to 100%

----------
This section presents molecules with their documented activity at 25 ppm values.
# Tested on: Lactobacillus fructivores (NBRC 13954)
# method_summary: Antimicrobial action of oxygen-containing heterocyclic compounds in soy sauce (Test Example 7)
# Type: cell-based
# run_parameters: NBRC13954, 168 h, salt 4% (w/v), alcohol 5% (v/v), test substance 25 ppm
endpoint_label: activity at 25 ppm

molecule | endpoint_label | value
COc1c(CC=C(C)C)c(O)cc2c1C[C@H](c1ccc(O)cc1O)CO2 [Glyasperin C] | activity at 25 ppm | 10 to 50%
COc1cc2oc(=O)c(-c3ccc(O)cc3O)cc2c(OC)c1CC=C(C)C [Glycyrin] | activity at 25 ppm | 10 to 50%
COc1c(CC=C(C)C)c(O)cc2c1C[C@H](c1ccc(O)c(CC=C(C)C)c1O)CO2 [Licoricidin] | activity at 25 ppm | < 10%
COc1cc2oc(-c3ccc(O)cc3O)cc2c(OC)c1CC=C(C)C [Gancaonin I] | activity at 25 ppm | 10 to 50%
CC(C)=CCc1c(O)c(CC=C(C)C)c2occ(-c3ccc(O)cc3)c(=O)c2c1O [8-(γ,γ-dimethylallyl)-wighteone] | activity at 25 ppm | < 10%
C=CC(C)(C)c1c(O)cc(OC)c2cc(-c3ccc(O)cc3O)c(=O)oc12 [Licoarylcoumarin] | activity at 25 ppm | 10 to 50%
COc1c(CC=C(C)C)c(O)cc2oc(=O)c(-c3ccc(O)cc3O)cc12 [Glycycoumarin] | activity at 25 ppm | < 10%
CC(C)=CCc1cc(-c2coc3cc(O)c(CC=C(C)C)c(O)c3c2=O)cc(O)c1O [Isoangustone A] | activity at 25 ppm | < 10%
